Molecular target: T1, human tissue factor pathway inhibitor (TFPI) (human, UniProt P10646 29-304, limits assumed)
T1 construct: bought; also called hTFPI; human TFPI
T1 sequence (looked up): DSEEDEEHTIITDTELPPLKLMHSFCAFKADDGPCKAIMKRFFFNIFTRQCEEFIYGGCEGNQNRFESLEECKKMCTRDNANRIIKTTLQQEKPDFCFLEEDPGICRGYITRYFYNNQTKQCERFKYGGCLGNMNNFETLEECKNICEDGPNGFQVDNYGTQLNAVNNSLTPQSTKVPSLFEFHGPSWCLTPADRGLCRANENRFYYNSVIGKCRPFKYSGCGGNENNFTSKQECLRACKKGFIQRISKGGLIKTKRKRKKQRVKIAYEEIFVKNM
Assay: SPR, TFPI immobilized
Tag: yes (1) if measured Improvement is not below 2 fold, no (0) if it is.

Look over these answered cases.
[[record]]
binder = "2A8 HC_I51E (Fab, V domains shown, also called 2A8-6) VH: QVQLVESGGGLVQPGGSLRLSCAASGFTFRSYGMSWVRQAPGKGLEWVSSERGSSSSTYYADSVKGRFTISRDNSKNTLYLQMNSLRAEDTAVYYCARKYRYWFDYWGQGTLVTVSS VL: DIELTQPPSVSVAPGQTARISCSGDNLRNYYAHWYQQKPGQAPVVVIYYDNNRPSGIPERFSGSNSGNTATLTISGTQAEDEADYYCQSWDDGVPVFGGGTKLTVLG"
category = "no (0)"

[[record]]
binder = "2A8 HC_S35D (Fab, V domains shown, also called 2A8-4) VH: QVQLVESGGGLVQPGGSLRLSCAASGFTFRSYGMDWVRQAPGKGLEWVSSIRGSSSSTYYADSVKGRFTISRDNSKNTLYLQMNSLRAEDTAVYYCARKYRYWFDYWGQGTLVTVSS VL: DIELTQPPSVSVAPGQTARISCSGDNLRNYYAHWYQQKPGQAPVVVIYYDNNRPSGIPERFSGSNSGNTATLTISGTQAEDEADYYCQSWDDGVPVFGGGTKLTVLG"
category = "yes (1)"

[[record]]
binder = "2A8 HC_K99V (Fab, V domains shown, also called 2A8-10) VH: QVQLVESGGGLVQPGGSLRLSCAASGFTFRSYGMSWVRQAPGKGLEWVSSIRGSSSSTYYADSVKGRFTISRDNSKNTLYLQMNSLRAEDTAVYYCARVYRYWFDYWGQGTLVTVSS VL: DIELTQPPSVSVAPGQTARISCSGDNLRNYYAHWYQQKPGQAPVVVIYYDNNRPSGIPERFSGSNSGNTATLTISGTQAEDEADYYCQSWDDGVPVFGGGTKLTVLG"
category = "yes (1)"


Req: Please indicate if the recorded Improvement for 4B7 wild-type Fab (Fab, V domains shown, Fab with HA (or c-myc) and 6xHis tag at the C-terminus of the heavy chain; also called 4B7wt; parental 4B7) VH: QVQLQQSGPGLVKPSQTLSLTCAISGDSVSSNSAAWSWIRQSPGRGLEWLGIIYKRSKWYNDYAVSVKSRITINPDTSKNQFSLQLNSVTPEDTAVYYCARWHSDKHWGFDYWGQGTLVTVSS VL: DIVMTQSPLSLPVTPGEPASISCRSSQSLVFSDGNTYLNWYLQKPGQSPQLLIYKGSNRASGVPDRFSGSGSGTDFTLKISRVEAEDVGVYYCQQYDSYPLTFGQGTKVEIKR meets or exceeds 2 fold.
Resp: no (0)

Ref: patent USRE47150
